# Tested on: M14 melanoma
# ASSAY REMARKS: NCI-60 one-dose screen, 48 h
# CONDITION DESCRIPTION: 10 µM unless noted
About 83,000 compounds went through this panel and 20% of them were active in at least one assay; those are over-represented in the sample as a whole. Activity calls are given as the source filed them. The calls were made as follows: active = growth percent below 10; inactive = the rest.
Select the correct class. Options are label 1 = active, label 0 = inactive and nothing else.

Use these answered entries as a reference point.
MOLECULE	GROUP
CSC1=C(N)C(=O)c2[nH]cc(CO)c2C1=N	label 1
O=C1CC(c2ccc3c(c2)OCO3)c2ncn(-c3ccc(Cl)cc3)c2N1 (centres undefined)	label 1
COC(=O)[C@]12CC[C@@H](C)[C@H](C)[C@@H]1C1=CC[C@@H]3[C@@]4(C)C[C@@H](OC(=O)/C=C/c5ccccc5)[C@H](O)[C@@](C)(CO)[C@@H]4[C@H](O)C[C@@]3(C)[C@]1(C)CC2	label 0
C[N+](C)(CCOC(c1ccccc1)c1ccccc1)CC(=O)OCc1ccccc1	label 0
CCS(=O)(=O)N1CCN(c2ccc(Nc3ncc(C(N)=O)c(NC4CC4)n3)cc2)CC1	label 0
Cc1nc(-c2cn3c(n2)-c2ccc(-c4cnn(C(C)(C)C(N)=O)c4)cc2OCC3)n(C(C)C)n1	label 0
COCc1c(-c2ccc(NC(=O)Nc3cc(C(F)(F)F)ccc3F)c(F)c2)c2c(N)ncnn2c1CN1CCOCC1	label 1
CCCC(=O)OCC1OC(n2cnc3c(=S)nc(N)[nH]c32)C(OC(=O)CCC)C1OC(=O)CCC (centres undefined)	label 0
O=C(Nc1cccc([N+](=O)[O-])c1)c1ccc(Cl)c(Cl)c1	label 0
Nc1c2c(c(O)c3c1=C(CO)C=N3)=NCCS2=O (centres undefined)	label 1

We next turn to a different molecule, shown below.
Assay result, entry CCCCCCCCCNCCCCCCCCC — outcome?
label 1
